FYI, the data here is from the supplement of paper PMC4976141.

tested on: NCI-H596; experiment: % viability under drug (72 h drug + 72 h recovery), miRNA mimic relative to NTC in DMSO; higher = more surviving cells; conditions: drug used in drug arm: paclitaxel 6 uM; treatment: drug
Strictly below 1% in % viability under drug: yes. Otherwise: no.

Prompt line: Say whether its % viability under drug is strictly beneath 1%. Entry: AAAAGUAAUUGCGGAUUUUGCC
Response line: no

Prompt line: Hello, is % viability under drug of the following sequence strictly smaller than 1%? AACGCCAUUAUCACACUAAAUA
Response line: yes

Prompt line: Confirm or reject: % viability under drug of GCGAGGACCCCUCGGGGUCUGAC lies strictly below 1%
Response line: no

Prompt line: Please check: % viability under drug for UAGGUAGUUUCAUGUUGUUGGG , strictly under 1% or not?
Response line: no

Prompt line: Does the reported % viability under drug of AAAAGUAAUUGUGGUUUUUGCC stay below 1%?
Response line: yes

Prompt line: For AAAAGUACUUGCGGAUUUUGCU , is the recorded % viability under drug below the cut-off of 1%?
Response line: no

Prompt line: Record UCUACAAAGGAAAGCGCUUUCU : is its % viability under drug strictly below 1%?
Response line: no

Prompt line: Please state whether % viability under drug is below 1% for UGUCAGUUUGUCAAAUACCCCA
Response line: yes

Prompt line: Lab note: confirm whether the reported % viability under drug for this sequence is below 1%, equality not counting. sequence: CAAUGUUUCCACAGUGCAUCAC
Response line: yes

Prompt line: Just wondering, is % viability under drug of CAAAAGUAAUUGUGGAUUUUGU below 1%?
Response line: yes

Prompt line: Please check: % viability under drug for GAAUGUUGCUCGGUGAACCCCU , strictly under 1% or not?
Response line: yes

Prompt line: Please let me know if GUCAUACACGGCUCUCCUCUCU shows % viability under drug below 1%.
Response line: yes

Prompt line: % viability under drug strictly < 1% for this sequence? AAGUGCCGCCAUCUUUUGAGUGU
Response line: yes

Prompt line: Say whether its % viability under drug is strictly beneath 1%. Entry: GAGCCAGUUGGACAGGAGC
Response line: yes

Prompt line: In the record for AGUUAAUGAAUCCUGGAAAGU , is % viability under drug less than 1%?
Response line: yes

Prompt line: # TODO verify % viability under drug < 1% strictly for this sequence: ACAGUAGAGGGAGGAAUCGCAG
Response line: yes

====

tested on: PC9; assay: cell count fold change with erlotinib, miRNA mimic vs non-targeting control (log2 ratio); higher = more drug-tolerant survivors than NTC; conditions: erlotinib 1 µM; 72 h drug + 72 h drug-free recovery; perturbation: miRNA mimic
property: cell count fold change with erlotinib
Note: the reply should be a number with no unit written.

Short answer for AUCAUAGAGGAAAAUCCACGU : cell count fold change with erlotinib was -3.73

The recorded cell count fold change with erlotinib for UGCGGGGCUAGGGCUAACAGCA is 0.647

Data point: GAUUAGGGUGCUUAGCUGUUAA ; cell count fold change with erlotinib = -2.53

The sequence listed as AAGGAGCUUACAAUCUAGCUGGG shows cell count fold change with erlotinib equal to -0.343

Recorded result, UAGUGCAAUAUUGCUUAUAGGGU , cell count fold change with erlotinib: -3.19

Lab book: cell count fold change with erlotinib of UUAUGGUUUGCCUGGGACUGAG noted as -0.886

Value of measured cell count fold change with erlotinib for the entry CUCUAGAGGGAAGCGCUUUCUG : -1.78

Lookup result for CGGGUCGGAGUUAGCUCAAGCGG ; measured cell count fold change with erlotinib: -0.802

Briefly, cell count fold change with erlotinib measured for AUCAUGAUGGGCUCCUCGGUGU : -3.05

Lab note: measured cell count fold change with erlotinib of UGAGCGCCUCGACGACAGAGCCG was -1.23

cell count fold change with erlotinib in this record for CAAAGCGCUCCCCUUUAGAGGU : -0.185

// cell count fold change with erlotinib lookup, sequence = CAGUGCAAUGAUAUUGUCAAAGC , result: -2.68

Reported cell count fold change with erlotinib of GUGAGUCUCUAAGAAAAGAGGA : -1.43

Quick note, cell count fold change with erlotinib for AGCAGCAUUGUACAGGGCUAUGA landed at -0.577

// cell count fold change with erlotinib value for AGCUGGUGUUGUGAAUCAGGCCG : -0.131

====

test system: M14; experiment: % viability in DMSO, miRNA mimic relative to NTC in DMSO; higher = less cytotoxic; details: drug used in drug arm: AZ628 1 uM; treatment: DMSO
% viability in DMSO less than 60% is MET; % viability in DMSO greater than or equal to 60% is NOT MET.

Prompt line: Is % viability in DMSO strictly under 60% for the entry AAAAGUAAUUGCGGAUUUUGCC ?
Response line: NOT MET

Prompt line: Take the sequence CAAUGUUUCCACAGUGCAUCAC and say whether its % viability in DMSO is less than 60%.
Response line: MET

Prompt line: # check: % viability in DMSO < 60% for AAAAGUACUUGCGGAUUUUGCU
Response line: NOT MET

Prompt line: Please check: % viability in DMSO for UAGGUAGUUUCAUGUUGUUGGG , strictly under 60% or not?
Response line: NOT MET

Prompt line: In the record for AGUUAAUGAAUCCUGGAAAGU , is % viability in DMSO less than 60%?
Response line: MET

Prompt line: % viability in DMSO strictly < 60% for this sequence? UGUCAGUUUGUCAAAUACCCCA
Response line: NOT MET

Prompt line: I'd appreciate it if you could check whether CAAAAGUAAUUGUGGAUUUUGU has % viability in DMSO smaller than 60%.
Response line: NOT MET

Prompt line: Bench note: check whether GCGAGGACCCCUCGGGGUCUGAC shows % viability in DMSO below 60%
Response line: MET

Prompt line: Check if % viability in DMSO falls below 60% for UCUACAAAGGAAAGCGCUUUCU .
Response line: NOT MET

Prompt line: Please state whether % viability in DMSO is below 60% for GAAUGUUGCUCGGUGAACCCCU
Response line: MET

Prompt line: hey, is % viability in DMSO for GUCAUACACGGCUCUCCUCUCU lower than 60% or not?
Response line: MET

Prompt line: Does GAGCCAGUUGGACAGGAGC have % viability in DMSO strictly under 60%?
Response line: NOT MET

Prompt line: Please determine if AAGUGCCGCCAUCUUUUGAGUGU is below 60% in terms of % viability in DMSO.
Response line: MET

Prompt line: Take the sequence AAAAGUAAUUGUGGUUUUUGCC and say whether its % viability in DMSO is less than 60%.
Response line: NOT MET

Prompt line: % viability in DMSO strictly < 60% for this sequence? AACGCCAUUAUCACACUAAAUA
Response line: NOT MET

Prompt line: hey, is % viability in DMSO for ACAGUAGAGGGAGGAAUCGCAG lower than 60% or not?
Response line: MET

====

test system: PC9; assay: cell count fold change with erlotinib, miRNA mimic vs non-targeting control (log2 ratio); higher = more drug-tolerant survivors than NTC; conditions: erlotinib 1 µM; 72 h drug + 72 h drug-free recovery; perturbation: miRNA mimic
Please note: true applies when cell count fold change with erlotinib is -3 or greater, and false applies otherwise.

Prompt line: Test whether the sequence UAGUACCAGUACCUUGUGUUCA records cell count fold change with erlotinib of -3 or higher.
Response line: false

Prompt line: Could you verify whether the entry CAUCUUCCAGUACAGUGUUGGA shows cell count fold change with erlotinib of no less than -3?
Response line: true

Prompt line: Dear colleague, could you confirm whether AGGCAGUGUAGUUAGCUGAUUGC has cell count fold change with erlotinib at or above -3?
Response line: true

Prompt line: Has CAUCUUACUGGGCAGCAUUGGA a recorded cell count fold change with erlotinib greater than or equal to -3?
Response line: true

Prompt line: Check this sequence for cell count fold change with erlotinib at or above -3: CAACCUGGAGGACUCCAUGCUG
Response line: true

Prompt line: Reported cell count fold change with erlotinib reaches at least -3 for AGGUUACCCGAGCAACUUUGCAU ?
Response line: true

Prompt line: Determine whether this sequence has cell count fold change with erlotinib no lower than -3: UAGCAGCACAGAAAUAUUGGC
Response line: true

Prompt line: Given the entry CACACACUGCAAUUACUUUUGC , answer whether its cell count fold change with erlotinib meets or surpasses -3.
Response line: false

Prompt line: Check the entry UAAGUGCUUCCAUGCUU : does cell count fold change with erlotinib equal or exceed -3?
Response line: true

Prompt line: Textbook exercise: given the entry AUUCUGCAUUUUUAGCAAGUUC , state whether its cell count fold change with erlotinib is greater than or equal to -3.
Response line: true

Prompt line: Decide: is the reported value of cell count fold change with erlotinib for GGUUUGGUCCUAGCCUUUCUA equal to or greater than -3?
Response line: true

Prompt line: Answer whether cell count fold change with erlotinib of AGUGCCUGAGGGAGUAAGAGCCC is greater than or equal to -3.
Response line: true
